experiment: protein stability index of a GFP-peptide fusion (yeast GPS) (PSI 1-4); higher = more stable; sorted into four equal gates, so the index is relative within each strain
recordedConditions: pdr5∆
Class (by protein stability index) -- bottom bin (below 2), middle bin (2 to below 3), top bin (3 or more)

>>> df
                      polymersequence  grouplabel
 0           EFESELKNVEETQEIKE [ESC2]     top bin
 1           DWPTYVDQNPLTMHKII [SRB8]  middle bin
 2           LWDSKELEQLVEFNRKV [RPN3]  middle bin
 3           SYLETLTALGKEKEKER [MED2]  bottom bin
 4          KRIKGLEFSALSAADIV [RPO31]     top bin
 5          NVLFLRLFNNVKIHSQE [SRP72]  middle bin
 6           LYYRPHINKKSQLDLFL [GRR1]  middle bin
 7           PVQSKFGRKKRKGGPAT [RPT2]     top bin
 8         VVAKLEDKRKVRSAEYY [RPL16B]     top bin
 9           AMEFIFGNSLICEDPET [SMC2]  middle bin
10           SSKTRNVLNRIQELEDQ [ITC1]  bottom bin
11           HFFKWIEFIVYHQLLSD [SRB8]  bottom bin
12           SKEDTLRLCLDIVPYFL [RPN1]  bottom bin
13  VVSAVGEARNDIENKEE [YAR002W/NUP60]     top bin
14           ADKIVDEFPELKEPVED [NUT2]     top bin
15           TQQPGTNSHYNNTNTDN [SNF2]     top bin
16           RSRMLPTITLDDVYRPA [SNF5]     top bin
17          SQFLKRVHANLQCISQI [SNF11]  bottom bin
18           ITHAHSLSNPNSTATMQ [PGD1]  middle bin
19          RIHAKNFEAALFAKSSS [GAL11]  middle bin
20            MVMFMHMAKGLYYGSYR [COB]  bottom bin
21           VDASPNDVTRRTVKNIL [CSL4]     top bin
22         CEKWAASSWAKKIAQRE [RPL14A]     top bin
23          VRIDLGTIDKLQLELTI [RPO31]  middle bin
24           PSSEKPNIRTMSGTTKR [SSN2]  middle bin
25   NQTIKEAKDAIIELENI [YIL149C/MLP2]     top bin
26         NYNHLLPTRYTLDVEAF [RPL27A]  bottom bin

* * *

experiment: protein stability index of a GFP-peptide fusion (yeast GPS) (PSI 1-4); higher = more stable; sorted into four equal gates, so the index is relative within each strain
recordedConditions: ubr1∆
property: protein stability index

In [3]: df
Out[3]:
                    polymersequence  valueobserved
0         SQVKDSVTETESISQTP [SRP68]           2.93
1          QLNEKLVGRLRKCETQK [YCS4]              2
2        SKIFRFQNSKSASLFKQ [RPL24A]            2.1
3          ISNKDVIFKIRDRTSGQ [SRB4]           3.14
4  TRYELYIKNILEAPVKS [YLR335W/NUP2]           1.56
5          DASPDSLEALIDLCHDF [YCS4]           2.86
6          YSKDAKEIYYTPDPSEL [FAS2]           2.62

Just for reference, the supplement of paper PMC9732359 is where these values come from.
